# test target: Human gal-1 (Homo sapiens)
# Construct: purchased Peprotech
# Sequence (P09382 whole entry): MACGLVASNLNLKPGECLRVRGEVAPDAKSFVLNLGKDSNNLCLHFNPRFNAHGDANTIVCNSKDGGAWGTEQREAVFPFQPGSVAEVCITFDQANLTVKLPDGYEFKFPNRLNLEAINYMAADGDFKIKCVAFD
# test name: Gal-1 binding of the isolated phage clones (ELISA), affinity constants against gal-1 or control proteins (HSA, collagen)
# test context: phage clone expressing the peptide; Ka = 1/K*d; Coll = collagen
observation type: Affinity 2 Ka^Gal-1 / Ka^Coll

Dear colleague, could you send me Affinity 2 Ka^Gal-1 / Ka^Coll for each of the items below? Thanks.
1. YTFHFDIFQPHF [Peptide P2]
2. YHHSGPYAGPMW [Peptide P5]

1. 8.15
2. 1.58·10^13

Dear colleague, could you send me Affinity 2 Ka^Gal-1 / Ka^Coll for each of the items below? Thanks.
1. SVYVEISWVRTM [Peptide P6]
2. VHWDFRQWWQPS [Peptide P4]
3. DWSSWVYRDPQT [Peptide P8]
4. HYSWSWIAYSPG [Peptide P3]

[1.17, 1.93, 27.92, 1.35]
